- target desc: Protein translocase subunit SecA (Escherichia coli (strain K12)) (UniProt P10408)
- Sequence (P10408 whole entry): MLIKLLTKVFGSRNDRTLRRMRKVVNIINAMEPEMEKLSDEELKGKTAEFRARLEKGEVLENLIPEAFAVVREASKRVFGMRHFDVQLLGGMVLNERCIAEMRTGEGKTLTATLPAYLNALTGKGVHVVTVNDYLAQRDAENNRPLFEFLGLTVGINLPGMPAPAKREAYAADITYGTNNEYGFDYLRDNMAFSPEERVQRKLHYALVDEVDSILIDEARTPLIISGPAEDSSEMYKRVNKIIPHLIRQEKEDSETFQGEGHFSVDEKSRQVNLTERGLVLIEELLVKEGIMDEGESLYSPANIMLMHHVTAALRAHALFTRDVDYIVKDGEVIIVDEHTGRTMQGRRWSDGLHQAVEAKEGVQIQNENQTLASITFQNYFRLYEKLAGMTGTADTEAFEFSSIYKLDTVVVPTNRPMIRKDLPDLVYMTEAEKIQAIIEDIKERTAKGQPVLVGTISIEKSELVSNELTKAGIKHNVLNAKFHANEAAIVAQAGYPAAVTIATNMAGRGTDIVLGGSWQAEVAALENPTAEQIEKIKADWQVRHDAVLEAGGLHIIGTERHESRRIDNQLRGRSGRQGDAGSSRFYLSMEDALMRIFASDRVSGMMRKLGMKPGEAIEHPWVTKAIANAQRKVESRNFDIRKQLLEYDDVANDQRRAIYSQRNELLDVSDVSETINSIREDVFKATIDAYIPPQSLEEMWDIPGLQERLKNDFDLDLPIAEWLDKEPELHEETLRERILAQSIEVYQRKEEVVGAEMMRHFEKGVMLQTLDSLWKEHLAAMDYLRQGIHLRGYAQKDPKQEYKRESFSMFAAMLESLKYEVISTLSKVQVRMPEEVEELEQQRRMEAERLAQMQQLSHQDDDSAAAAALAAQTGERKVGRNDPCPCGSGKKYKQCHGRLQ
- test summary: Assay to Identify E. coli SecA ATPase Inhibitors
- Format: functional
- Parameters: scale not given: direction of the effect not stated beside the values
- experimental context: 30 µM
Entries with a potency or affinity are not part of this list.
reported metric: Percent Effect (%)

{"compound": "O=C(NC1CC1)N1CCc2ncnc(-c3ccncc3)c2CC1", "reported result": 5.45}
{"compound": "Cc1noc(C)c1-c1cncc(C2CCCN2Cc2ccncc2)n1 (stereo not drawn)", "reported result": 1.38}
{"compound": "O=C(N[C@@H]1CN(Cc2ccccc2)C[C@@H]2CCCO[C@@H]21)C1CC1", "reported result": 3.31}
{"compound": "O=C(CN1CCOC(Cn2cccn2)C1)NCc1cccs1 (stereo not drawn)", "reported result": 0.0678}
{"compound": "O=C(c1cccnc1-n1cncn1)N1CCc2ccccc2C1", "reported result": -1.58}
{"compound": "COCc1nc(C(=O)N2CCCCC2Cn2cc(C)cn2)cs1 (stereo not drawn)", "reported result": -5.14}
{"compound": "CCn1c(Cn2cncn2)nnc1C1CCN(Cc2ccncc2)CC1", "reported result": -5.1}
{"compound": "CN(CC(=O)N1CCCC1c1cnn(C)c1)c1ccc(Cl)cn1 (stereo not drawn)", "reported result": -8.15}
{"compound": "O=C(NCCOc1ccc(F)c(F)c1)NCc1ccncc1", "reported result": -1.97}
{"compound": "CCc1nc(CN2CCCN(c3nc4ccccc4o3)CC2)no1", "reported result": 7.05}
{"compound": "CCn1c(N)nc2cc(C(=O)NCc3ccccc3Cl)cnc21", "reported result": -5.22}
{"compound": "CCOc1ccccc1C(CC(=O)Nc1ccccc1F)NC(C)=O (stereo not drawn)", "reported result": -4.23}
{"compound": "Cc1nc(C)n(C2CCCN(C(=O)c3cc4ccccc4n3C)C2)n1 (stereo not drawn)", "reported result": -3.87}
{"compound": "COc1c(CNC(c2ccc(F)cc2)C(C)(C)C)c(C)nn1C (stereo not drawn)", "reported result": -1.68}
{"compound": "Cc1cnn(C2CCCN(C(=O)c3cc(C)sc3C)C2)c1 (stereo not drawn)", "reported result": 2.61}
{"compound": "CCc1ncncc1C(=O)N1CCN(Cc2ccco2)CC1", "reported result": -3.87}
{"compound": "O=C(NC1(c2nnn(Cc3ccncc3)n2)CCCC1)c1ccccc1", "reported result": -6.65}
{"compound": "COC(=O)C(c1cc(F)ccc1F)N(C)C(=O)c1csnn1 (stereo not drawn)", "reported result": 1.09}
{"compound": "CC(C)C1CN(c2ncccn2)CCC(=O)N1Cc1ccc(F)cc1 (stereo not drawn)", "reported result": -4.22}
{"compound": "CC(C)=CCN1CCOC(Cn2nc(C)cc2C)C1 (stereo not drawn)", "reported result": 2.83}
{"compound": "O=C(c1n[nH]c(=O)c2ccccc12)N1CCCCC1c1ccn[nH]1 (stereo not drawn)", "reported result": -1.96}
{"compound": "Cc1cc(F)c(S(=O)(=O)NCCCN2CCC(O)CC2)cc1F", "reported result": 0.398}
{"compound": "CCc1noc(C(C)N2CCN(c3ccc(C#N)cn3)CC2)n1 (stereo not drawn)", "reported result": -5.24}
{"compound": "O=C1C[C@H]2[C@@H](CCN2C(=O)c2ccccc2)N1CCN1CCOCC1", "reported result": -2.13}
{"compound": "CN(Cc1ccco1)Cc1ccccc1CNC(=O)c1ccc[nH]1", "reported result": 0.847}
{"compound": "COCCN(Cc1ccoc1)C(=O)c1c(F)cccc1Cl", "reported result": -4.43}
{"compound": "Cc1nc(CN2CC3(CCN(c4ncc(F)cn4)C3)CC2=O)cs1 (stereo not drawn)", "reported result": -1.99}
{"compound": "CC(C)Oc1ncccc1CNC(=O)c1cc[nH]n1", "reported result": -3.9}
{"compound": "O=C(NCc1cc[nH]n1)N1CCN(c2ccccc2Cl)CC1", "reported result": -5}
{"compound": "COc1ccc(CNC(=O)Nc2cccnc2N2CCCC2)cc1O", "reported result": -2.46}
{"compound": "CN(C)CCOCC1CN(CC2CCOCC2)Cc2nnn(C)c21 (stereo not drawn)", "reported result": -5.87}
{"compound": "Cc1cc(NC(=O)Cn2cc(C#N)c(=O)c3cc(Br)ccc32)no1", "reported result": -5.99}
{"compound": "CC(Cn1ccnc1)NC(=O)C1(c2ccc(F)cc2)CC1 (stereo not drawn)", "reported result": -2.91}
{"compound": "CCOc1cc(F)ccc1NS(=O)(=O)c1cc(C)c(C(=O)O)s1", "reported result": -9.09}
{"compound": "CN(C)C(=O)N1CCc2c(nnn2C)C1COCc1ccccc1 (stereo not drawn)", "reported result": -4.49}
{"compound": "CCN(CC)CC1CN(CCc2ccccc2)Cc2nccn2C1 (stereo not drawn)", "reported result": -3.63}
{"compound": "COc1ccc(-c2nnc(SC(C)C(=O)NCC(C)C)[nH]2)c(OC)c1 (stereo not drawn)", "reported result": -3.62}
{"compound": "c1cc2nc(C3CCN(CC4CC4)CC3)nn2cc1N1CCCC1", "reported result": -0.605}
{"compound": "CC(C)n1ccnc1C1CCN(Cc2ccc(Cl)s2)CC1", "reported result": -4.43}
{"compound": "Clc1ccccc1C1(c2ccnc(-c3ncccn3)n2)CCNCC1", "reported result": -3.79}
{"compound": "CC(NC(=O)NCC1(O)CCC1)c1ccc(OCC2CC2)c(F)c1 (stereo not drawn)", "reported result": -6.25}
{"compound": "CC(C)CN1CCC(C(=O)Nc2cc(C(F)(F)F)c[nH]c2=O)CC1", "reported result": -7.9}
{"compound": "CNc1cc(CNC(=O)c2ccccc2)nc(-c2ccncc2)n1", "reported result": -5.75}
{"compound": "COc1ccc(CCN2CCC(N3CCN(C)C3=O)CC2)cc1", "reported result": -6.17}
{"compound": "Nc1cc2c(nn1)CCN(C(=O)c1cccc3c1OCCO3)C2", "reported result": 0.377}
{"compound": "COC(=O)CNC(=O)CSCc1nc(O)c2c(C)c(C)sc2n1", "reported result": -1.31}
{"compound": "Cc1nc(N2CCCC2)nc2c1CCN(C(=O)CC1CC1)CC2", "reported result": -4.09}
{"compound": "CCS(=O)(=O)N1CCC(c2cc3n(n2)[C@@H](C(F)(F)F)C[C@@H](C)N3)CC1", "reported result": -3.21}
